Quick reference for melting point among some molecules

COCc1c(C=O)ncc2c1c1c(OCc3ccccc3)cccc1n2S(=O)(=O)c1ccc(C)cc1    125 to 127 °C
Nc1cccc(-c2ccccc2O)c1    158 to 161 °C

Which melting point is listed for O=C(O)c1ccc(F)cc1NS(=O)(=O)c1ccccc1 ?
158 to 159 °C

Requested read-out: melting point. Entry: COC(=O)c1cc(Cl)cnc1OC
79 to 81 °C

Look at this molecule and give its reported melting point. Cc1cc(SCc2cccc3nc(-c4ccc(C(F)(F)F)cc4)sc23)ccc1OCC(=O)O
193 to 196 °C

====

Readings of melting point for the listed molecules

Reference set, count: 2
CCOC(=O)C(C)Oc1ccc(N(C)c2nc3ccc(Br)cc3o2)cc1 (stereo unspecified)    91 to 92 °C
O=C1NC(=O)N(Cc2ccc(Cl)cc2)C1O (stereo unspecified)    149 to 150 °C

Field request: melting point | item: Oc1cccc(C2CN=C(c3ccccn3)O2)c1 (stereo unspecified)
139 to 141 °C

Consider the molecule shown here: FC(F)(F)c1cccc(C(CC2=NCCN2)c2ccc3ccccc3n2)c1 (stereo unspecified) What is its recorded melting point?
92 to 93 °C

Using the record for COc1ccc(C(=O)NC2CCCNC(=O)C2)cc1OC (stereo unspecified) , report its melting point.
190 to 191 °C

Please look up its melting point: CCCCNC(=O)OC1c2ncccc2C(=O)N1c1ccc2ccc(Cl)nc2n1 (stereo unspecified)
215 °C

Give the measured melting point of C=CCOc1ccc(C)c2c1C(=O)C1CCCCC21 (stereo unspecified) .
106 to 107 °C

Need melting point of CCCCc1cn(CC(C)C)c(=O)n1Cc1ccc(-c2ccccc2-c2nnn[nH]2)nc1 , thanks.
160 to 162 °C

I'd like to know its melting point. The molecule in question is CC1(C)C(=O)Nc2ccc(-c3cc(F)cc([N+](=O)[O-])c3)cc21
231 to 233 °C

====

Experimental readout: melting point (°C)
Give the value, in units of °C, as a plain number.

A selection of reference data follows.
CCCCCCOC(=O)COc1ccc(F)c(C(N)=O)c1F    108
CC(Cl)c1nc2c(C(F)(F)F)cccc2c(=O)o1 (centres undefined)    112
COC1=C(OC)C(=O)C(CCCCCCCCCCO)=C(C)C1=O    52

Reported melting point, compound O=C1c2cccc3cc4ccccc4c(c23)C(=O)N1CCCNCCN1C(=O)c2cccc3cc4ccccc4c(c23)C1=O : ____
260

====

Experimental readout: melting point

Name the reported melting point value associated with the molecule COc1cc(OC)c2ncc(C(=O)NCc3ccc(Cl)cc3)c(O)c2c1
270 to 271 °C

Suppose we examine the molecule OCCC(O)OCn1cc(Br)c2c(Cl)ncnc21 (stereo not drawn) ; what melting point value has been reported?
152 °C

Given Nc1ccc(N2C(=O)CCCC2c2ccc(Cl)c(Cl)c2)cc1 (stereo not drawn) , state its recorded melting point.
177 to 178 °C

====

Listing of entries alongside the reported melting point.

COc1cccc([C@@]23CCC[C@@H]2CN(C)CC3)c1 (relative stereo)    40 to 43 °C
N=C(N)NC(=O)c1nc(F)c(N)nc1N    233 °C

Which melting point is reported for this compound? C=CCS(=O)(=O)c1ccc(NN=C(C)C)cc1
105 to 108 °C

Entry under review: COc1cc(-c2n[nH]c(N=C(c3ccccc3)c3ccccc3)n2)c(OC)cc1C . Reported melting point?
228 °C

Endpoint output: melting point of CC(=O)NC(=CC(C)C)c1ccccc1N1CCCCC1 . Value?
140 to 143 °C

Field request: melting point | item: CC(C)CNS(=O)(=O)c1ccccc1CCOS(C)(=O)=O
106 to 108 °C

# lookup: melting point of CCOc1ccc2c(c1O)CCN(C(C)=O)[C@@H]2c1cc(Cl)cc(Cl)c1
238 to 241 °C

Would you kindly share the measured melting point for CCOC(Cc1ccc(OCCn2c(=O)sc3cc(C(=O)c4ccccc4)ccc32)cc1)C(=O)OC (stereo not given) ?
118 to 119 °C

Please report the recorded melting point for N#Cc1ccc2c(c1)S(=O)c1ccc(F)cc1C=C2 (stereo not given) .
240 to 243 °C

Reported melting point for CC(C)(C)OC(=O)NC(Cc1ccccc1)C1CC(Cc2ccccc2)=NO1 (stereo not given) : what is it?
106 to 107 °C

What does the data say about its melting point? Entry: Cc1c(CO)c2cnnc(OCc3ccc(F)cc3)c2n1C[C@H]1C[C@@H]1C
128 to 129 °C

Given the entry Cc1cc2cc(Nc3ccnc4cc(-c5ccc(CNCCCN(C)C)cc5)sc34)ccc2[nH]1 , report its measured melting point.
167 °C

Requested read-out: melting point. Entry: CCOC(=O)CCN1CCC[C@H](NCc2ccccc2OC)[C@@H]1c1ccccc1 (relative stereo)
110 to 112 °C

Value lookup for melting point; key = CCCCCCCCCCCCCCCCO[C@@H]1CCCO[C@H]1COCc1ccccc1 (relative stereo)
28.5 to 29.5 °C

Consider the compound CNC(=S)C1=C(O)C(COC)(COC)Oc2ccc([N+](=O)[O-])cc21 and give its measured melting point.
97 to 101 °C

====

Recorded measurements of melting point, one per entry

Record excerpt, results attached:
NCc1ccc(CNc2ncc3ncnc(Nc4ccc(F)c(Cl)c4)c3n2)cc1    211 to 213 °C
COc1ccc2c(c1)S(=O)(=O)N=CN2CCCl    126 to 130 °C
COc1cccc(OC)c1C(=O)P(CC(C)C)C(=O)c1c(OC)cccc1OC    138 to 140 °C
O=C(COc1ccc(CCNS(=O)(=O)c2ccc(Cl)cc2)cc1)Nc1nnn[nH]1    228 to 230 °C
COc1cn(C(c2ccccc2)c2ccccc2)c(=O)o1    125 to 127 °C

What does the record list as melting point for Oc1ccc(-c2c3ccccc3cc3sc4cc(O)ccc4c23)cc1 ?
197 to 199 °C

Query: melting point; subject: CCOC(=O)COc1ccc(NS(C)(=O)=O)c(C)c1
93 to 94 °C

GET /values?readout=melting point&item= NCC1Cc2cc(-c3cccc(F)c3)cc(F)c2O1 (stereo unspecified)
> 250 °C

====

Examples of molecules with documented melting point follow.

Observe how each entry below is paired with its result.
CCOC(=O)c1cn(C2CC2)c2c(F)c(NCC(O)COC(=O)c3ccccc3)c(F)cc2c1=O (stereo not drawn)    134 to 136 °C
Cc1cc(S)n2nc(S(=O)(=O)O)nc2n1    254 to 256 °C
O=c1[nH]c2ccccc2nc1-c1cc(O)c(O)c([N+](=O)[O-])c1    > 300 °C

What value of melting point has been recorded for this entry: CCOc1cc(-n2c(=O)cc(C(F)(F)F)[nH]c2=O)c(F)cc1Br
161 to 162 °C

Form field: reported melting point of COc1c(Cl)cc(F)cc1C1OC(=O)NC1=O (stereo not drawn)
177 to 179 °C

====

# melting point per record follows

Recorded results for 4 compounds are shown here.
CCCc1c(OCCCOc2cc(O)c(-c3ccc(F)cc3)cc2CC)cccc1C(=O)c1ccccc1C(=O)O    50 to 52 °C
CC1(C)OC(=O)C(C(=O)Cc2cc(F)c(F)cc2F)C(=O)O1    102 to 104 °C
CCOC(=O)c1cn(-c2ccc(F)cc2F)c2nc(N3CCNCC3)c(F)cc2c1=O    208 to 211 °C
CC(C)C[C@H](NC(=O)CCCc1ccccc1)C(=O)N[C@@H](Cc1ccccc1)C(=O)CSCc1ccco1    106 to 108 °C

Need melting point of CCCCOc1nc2cccc(C(=O)OC)c2n1Cc1ccc(-c2ccccc2C#N)cc1 , thanks.
74 to 75 °C

Can you share its melting point? I mean this compound: CN(CCC#N)CCc1coc(-c2cc(C(C)(C)C)c(O)c(C(C)(C)C)c2)n1
104 to 105 °C

Quick check: melting point of Nc1ccc(-n2ccn(CCCC3CCCCC3)c2=O)cc1 ?
83 to 85 °C

====

Experimental readout: melting point

Some solved cases for reference:
CCCOc1cc(-c2c(C(=O)OCC)c(CCl)nc3cc(OC)c(OC)cc23)ccc1OC    126 to 128 °C
CC(C)Cc1c(C(=O)OC(C)(C)C)c(C(F)F)nc(C(F)(F)F)c1C(=O)OC(C)(C)C    48 to 50 °C

Here is another molecule to look at.
Dear colleague, I am looking for the recorded melting point of the following molecule: O=C1CC2(C(=O)N1)C(=O)N(Cc1ccc(Br)cc1F)c1ccccc12 (stereo not drawn)
218 to 220 °C

====

Reported melting point by item:

Illustrative cases are given below, each with its answer.
CCC(=O)c1ccc(CCNS(=O)(=O)c2ccc(OC)cc2)cc1    107 °C
CCCOCCOC(=O)C(=O)Nc1nc(-c2ccccc2)cs1    94 to 96 °C
Cn1ccnc1Sc1c(N)cccc1Cl    123 to 124 °C
CN(C)C(=O)N(N)c1ccc(F)c(Cl)c1    88 to 89 °C

I'd like to know its melting point. The molecule in question is COc1ccc2nc(O)c(O)nc2c1
> 300 °C
